Entry source: patent US20250320496A1

Test system: human ABCB11 mRNA
procedure_text: ASO treatment of primary human hepatocytes (PHH), ABCB11 mRNA by RT-qPCR normalized to B2M
Format: cell-based
test_settings: primary human hepatocytes, 5 μM ASO, normalized to untreated PHHs (UNT)
Strand notation (5' to 3'): a small letter for the sugar, then the base; units joined by * are phosphorothioate-linked, units joined directly phosphodiester-linked; [ ] holds rarer units or linkages, { } end groups; capitals alone tell only the bases. e = 2'-O-(2-methoxyethyl) (MOE); l = locked nucleic acid (LNA); [5mC] = 5-methylcytosine; d = 2'-deoxy (DNA)
# maps each entry to its ABCB11 mRNA FC (5 μM ASO vs. UNT)
Answer in fold change, number only, no unit symbol.

Some entries whose results are on file:
CO-6982 (antisense eA*eA*eG*eA*e[5mC]*eA*eG*eA*eA*eG*eT*eG*eA*eG*eG*e[5mC]*eA*eT*e[5mC]*eA); 0.976
CO-6675 (antisense eA*eG*e[5mC]*eA*eA*eG*e[5mC]*eT*eG*eT*eG*eT*eG*eG*eA*eA*eG*eG*eA*e[5mC]); 1.346
CO-7089 (eA*e[5mC]*e[5mC]*l[5mC]*e[5mC]*d[5mC]*d[5mC]*lT*d[5mC]*dA*d[5mC]*l[5mC]*dT*dT*dG*lG*eT*eT*e[5mC]*e[5mC]; antisense); 1.249
CO-7160 (antisense eT*eG*eT*eG*eG*eA*eG*eG*eT*eG*eG*eA*eG*e[5mC]*eA*eA*eA*e[5mC]*eT*eA); 1.312
CO-4030 (antisense eT*e[5mC]*eA*e[5mC]*eA*eG*eGeT*eA*eA*eG*eT*eA*eA*e[5mC]*eT*eT*eA*eT*eA); 1.106

Provide measured ABCB11 mRNA FC (5 μM ASO vs. UNT) value, entry: CO-4486 (antisense eG*eG*eA*e[5mC]*eT*eG*e[5mC]*eG*eT*eG*eA*e[5mC]*eT*e[5mC]*eA*eG*eG*eT*eT*eA)
1.151

Supply recorded ABCB11 mRNA FC (5 μM ASO vs. UNT) for CO-7192 (eT*eG*eG*l[5mC]*eG*eT*eT*lA*eT*eT*eA*lA*eT*eT*e[5mC]*lT*eA*e[5mC]*eA*eG; antisense) here.
1.591

Please give the documented ABCB11 mRNA FC (5 μM ASO vs. UNT) of CO-4037 (antisense eG*eG*eG*eA*e[5mC]*eA*eT*eT*eG*eA*eT*e[5mC]*e[5mC]*eT*eT*eA*eG*eG*e[5mC]*eA)
0.697

Identify measured ABCB11 mRNA FC (5 μM ASO vs. UNT) corresponding to CO-7008 (antisense eG*eT*eG*eG*eA*lT*dG*dT*lA*dG*dA*dT*dG*lA*dA*dT*lG*eG*e[5mC]*eA*eA*eG)
1.175

Specify reported ABCB11 mRNA FC (5 μM ASO vs. UNT) for the substance shown: CO-7103 (eT*eA*eT*e[5mC]*eT*eG*eG*eA*eA*eA*eA*eT*eA*eA*eT*eG*e[5mC]*e[5mC]*eT*eT*eT*e[5mC]*eT*eA; antisense)
1.006

Assign ABCB11 mRNA FC (5 μM ASO vs. UNT) to the following record: CO-7046 (antisense eT*eG*eT*eG*eT*eT*eT*eT*eG*e[5mC]*eT*eT*eG*eG*eT*e[5mC]*eA*eA*eG*eA)
1.243

For the substance CO-7164 (antisense eA*eT*eT*e[5mC]*eT*eA*e[5mC]*eA*eG*eA*eG*eG*eG*eA*eG*e[5mC]*eA*eT*eA*eA) , give its reported ABCB11 mRNA FC (5 μM ASO vs. UNT).
1.178

Check the records and state ABCB11 mRNA FC (5 μM ASO vs. UNT) for CO-7034 (antisense eT*eT*eA*eG*eA*eG*eA*e[5mC]*eA*eA*eA*eG*eA*eA*eT*e[5mC]*eG*e[5mC]*eT*eG)
1.097
